# EXPERIMENT_SUMMARY: Chromogenic reaction of degrading herbicides in bacteria: 2,4-D
# Type: cell-based, Escherichia coli
# STATED_CONDITIONS: recombinant E. coli expressing the gene, 2,4-D added to the medium; red = phenols
MEASURED_PARAMETER: Chromogenic reaction of degrading herbicides in bacteria: 2,4-D

QYD45: AAD-like enzyme, SEQ ID NO. 89 (protein, Synthetic polypeptide, QYD45, D45) MARPFDIAPLDATFGAIVTGVKLAGLDEACWRALHAAWLQYALLVFPNQHLARVEQIAFAKRFGPLEFEMAAISNVRADGSLRVETDNDDMMKILKGNMGWHADSTYMPVQAKGAVFSAEVVPTIGGQTGFADMRAAYDALDEDLKARVETLQAYHSLHYSQSRLGHETKKADGEYSGYGLHDGPVPLRPLVKTHPETGRKSLLIGRHAHAIPGMEPGESERFLQELIDFACQPPRVYRHNWAPGDAVLWDNRCLLHQATPWDMTQKRIMWHSRIAGDAAGETALAH	Yes
QYD53: AAD-like enzyme, SEQ ID NO. 105 (protein, Synthetic polypeptide, QYD53, D53) MASTLSLQPLEGITFGAVATGFRIAELDEPTWQALHDAWLDHALLIFPGQFLTRDEQIAFARRFGPLEFEMAAISNVKPDGTLRLEKDNDDMMKVLKGNMGWHADSTYMPVQAKGAVFSAEVVPTIGGETGWADMRAAYEALDAATREKIDGLSAFHSLHYSQSKLGHQTQKSDGQYNGYGLHDGPVPLRPLVKTHPETGRKSLLIGRHAHNIPGMDKAESERFLDGLIAFACQPPRVYHHHWAPGDVVVWDNRCLLHQATPWDMTQPRVMWHSRIAGDPASEAGLAA	Yes
